t ½ ratio pH 7.4/pH 4.5 values by entry
- experimental system: T1, serum resistance-associated protein (SRA) from Trypanosoma brucei rhodesiense, recombinant SRA (SEQ ID NO: … (Trypanosoma brucei rhodesiense, UniProt O96637 31-274))
- T1 construct: also called SRA protein
- T1 sequence: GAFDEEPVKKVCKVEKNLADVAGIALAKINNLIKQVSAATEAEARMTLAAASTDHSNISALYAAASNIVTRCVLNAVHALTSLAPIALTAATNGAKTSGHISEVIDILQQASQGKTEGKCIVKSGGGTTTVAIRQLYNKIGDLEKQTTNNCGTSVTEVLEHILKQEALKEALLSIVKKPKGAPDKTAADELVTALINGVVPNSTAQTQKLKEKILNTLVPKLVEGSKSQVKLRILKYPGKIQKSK
- assay notes: SPR, 25C, t1/2 pH 7.4 over pH 4.5

H1H10061P (antibody, V domains shown, Fully human antibody with human IgG1 Fc (prefix H1H)) VH: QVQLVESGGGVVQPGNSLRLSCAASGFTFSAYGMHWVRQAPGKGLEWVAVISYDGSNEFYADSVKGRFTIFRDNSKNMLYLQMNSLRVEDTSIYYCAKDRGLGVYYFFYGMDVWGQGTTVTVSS VL: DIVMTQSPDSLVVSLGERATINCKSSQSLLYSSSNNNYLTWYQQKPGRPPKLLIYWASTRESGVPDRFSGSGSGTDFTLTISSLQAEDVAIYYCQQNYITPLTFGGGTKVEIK	≥ 2

Ask: Note down t ½ ratio pH 7.4/pH 4.5 recorded for H1H10027P (antibody, V domains shown, Fully human antibody with human IgG1 Fc (prefix H1H)) VH: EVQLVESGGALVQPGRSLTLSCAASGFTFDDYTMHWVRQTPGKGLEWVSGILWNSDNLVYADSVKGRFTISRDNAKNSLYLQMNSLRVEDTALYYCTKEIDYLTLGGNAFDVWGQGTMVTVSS VL: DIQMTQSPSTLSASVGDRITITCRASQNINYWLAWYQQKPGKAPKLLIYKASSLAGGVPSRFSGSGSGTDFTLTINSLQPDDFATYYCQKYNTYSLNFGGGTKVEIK
Reply: ≥ 3

Ask: Please indicate t ½ ratio pH 7.4/pH 4.5 recorded for H1H10031P (antibody, V domains shown, Fully human antibody with human IgG1 Fc (prefix H1H)) VH: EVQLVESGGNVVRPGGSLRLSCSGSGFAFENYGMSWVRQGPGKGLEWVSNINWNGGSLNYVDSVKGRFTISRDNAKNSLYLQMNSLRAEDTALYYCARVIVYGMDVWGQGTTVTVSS VL: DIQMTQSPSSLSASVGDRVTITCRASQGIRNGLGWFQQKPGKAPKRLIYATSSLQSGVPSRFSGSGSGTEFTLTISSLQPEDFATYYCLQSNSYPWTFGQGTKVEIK
Reply: ≥ 1
